Biological target: human recombinant adrenergic α2A receptor (Homo sapiens, UniProt P08913)
Construct: expressed in transfected cells; host or cells: insect Sf9 cells
Sequence (P08913 whole entry): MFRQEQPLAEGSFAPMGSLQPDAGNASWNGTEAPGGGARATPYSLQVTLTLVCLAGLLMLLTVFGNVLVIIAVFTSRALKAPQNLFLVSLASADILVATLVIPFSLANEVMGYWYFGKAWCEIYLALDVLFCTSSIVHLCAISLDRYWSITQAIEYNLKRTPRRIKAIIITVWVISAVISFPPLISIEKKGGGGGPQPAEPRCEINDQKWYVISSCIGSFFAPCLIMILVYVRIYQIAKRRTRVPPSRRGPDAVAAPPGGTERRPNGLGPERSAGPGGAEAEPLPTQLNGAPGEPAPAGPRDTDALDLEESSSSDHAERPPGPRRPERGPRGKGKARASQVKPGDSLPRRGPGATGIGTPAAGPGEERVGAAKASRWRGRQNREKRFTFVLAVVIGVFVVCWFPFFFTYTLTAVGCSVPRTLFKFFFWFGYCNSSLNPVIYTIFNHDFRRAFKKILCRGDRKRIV
Test: Adrenergic α2A radioligand binding ([3H]MK-912)
Conditions: compound at 1 μM; read-out: Inhibition of ligand binding, Adrenergic α2A (percent inhibition of specific binding)
Readings of inhibition at 1 µM for the listed molecules
The answer is to be given in %; state only the numeric part.

Please review the entries below; each comes with its answer.
# STRUCTURE_SMILES, VALUE_UNIT, inhibition at 1 µM
measured = [
    ("CN1CCc2c(c3cc(C(=O)O)ccc3n2C#Cc2ccc(F)cc2)C1", "%", 8),
    ("COc1ccc(C#Cn2c3c(c4cc(Cl)ccc42)CN(C)CC3)cc1F", "%", 97),
]

Could you share what inhibition at 1 µM was measured for `CNC(=O)c1ccc2c(c1)c1c(n2C#Cc2ccc(F)cc2)CCN(C)C1` , tested on human recombinant adrenergic α2A receptor (Homo sapiens, UniProt P08913)?
77

Form entry - test system: human recombinant adrenergic α2A receptor (Homo sapiens, UniProt P08913); read-out: inhibition at 1 µM; molecule: `Cc1ccc2c(c1)c1c(n2C#Cc2ccc(C)nc2)CCN(C)C1`
96

Hello, I am looking for reported inhibition at 1 µM with human recombinant adrenergic α2A receptor (Homo sapiens, UniProt P08913) for `Cc1ccc2c(c1)c1c(n2C#Cc2ccc(F)cc2)CCN(C)C1` . Could you help?
96

----------
Examples of compounds with documented inhibition at 1 µM follow.
Target: human recombinant serotonin (5-Hydroxytryptamine) 5-HT2A receptor (Homo sapiens)
Construct: expressed in transfected cells; host or cells: Chinese hamster ovary (CHO-K1) cells
Assay: Serotonin 5-HT2A radioligand binding ([3H]Ketanserin)
Settings: read-out: Inhibition of ligand binding, Serotonin 5-HT2A (percent inhibition of specific binding), compound at 1 μM
Output spec: scalar in %, unitless text.

Sample records with inhibition at 1 µM:
# COMPOUND, READOUT_KIND, EXPERIMENTAL_RESULT
records = [
    ("C/C(=C\\n1c2c(c3cccc(Cl)c31)CN(C)CC2)c1ccncc1", "inhibition at 1 µM", 100),
    ("Cc1ccc2c(c1)c1c(n2CC(C)(O)c2cccnc2)CCN(C)C1 (centres unmarked)", "inhibition at 1 µM", 78),
    ("C/C(=C\\n1c2c(c3cc(Cl)ccc31)CN(C)CC2)c1cc(F)c(F)cc1Cl", "inhibition at 1 µM", 93),
    ("C=C(Cn1c2c(c3cc(Cl)ccc31)CN(C)CC2)c1ccc(F)cc1", "inhibition at 1 µM", 100),
    ("CN1CCc2c(c3cc(Cl)ccc3n2CC(C)(O)c2ccncc2)C1 (centres unmarked)", "inhibition at 1 µM", 95),
    ("Cc1ccc(C(O)Cn2c3c(c4ccccc42)CN(C)CC3)cc1 (racemic)", "inhibition at 1 µM", 100),
]

// lookup inhibition at 1 µM for `C/C(=C/n1c2c(c3cc(C)ccc31)CN(C)CC2)c1ccncc1`
99

For Cc1ccc2c(c1)c1c(n2CC(C)(O)c2ccc(O)cc2)CCN(C)C1 (centres unmarked) , what is its reported inhibition at 1 µM?
102

Need inhibition at 1 µM, item CCC(O)(Cn1c2c(c3cc(Cl)ccc31)CN(C)CC2)c1ccc(F)cc1 (centres unmarked)
97

Which measured inhibition at 1 µM value corresponds to `Cc1ccc(C#Cn2c3c(c4cc(Cl)ccc42)CN(C)CC3)cn1` ?
98

Query (compound): `CN1CCc2c(c3cc(Cl)ccc3n2/C=C(/c2ccc(F)cc2)C2CCC2)C1` ; field requested: inhibition at 1 µM
98

Returns the measured inhibition at 1 µM for the input compound. Input: `CN1CCc2c(c3cc(Cl)ccc3n2C#Cc2ccc(Cl)cc2)C1`
98

Recorded inhibition at 1 µM for `C/C(=C\n1c2c(c3cc(C)ccc31)CN(C)CC2)c1ccc(Cl)c(Cl)c1` , please?
101

I would be grateful if you could share the reported inhibition at 1 µM for `C=C(Cn1c2c(c3cc(Cl)ccc31)CN(C)CC2)c1cccnc1` .
96

----------
Let's look at some compounds and their measured inhibition at 1 µM.
Target: human recombinant serotonin (5-Hydroxytryptamine) 5-HT2A receptor (Homo sapiens)
Construct: expressed in transfected cells; host or cells: Chinese hamster ovary (CHO-K1) cells
Assay: Serotonin 5-HT2A radioligand binding ([3H]Ketanserin)
Conditions: read-out: Inhibition of ligand binding, Serotonin 5-HT2A (percent inhibition of specific binding), compound at 1 μM
Please answer using a numeric value trailed by its unit.

These recorded examples may help you get a feel for the data.
# COMPOUND, inhibition at 1 µM
data = [
    ("COc1ccc(C(C)(O)Cn2c3c(c4cc(Cl)ccc42)CN(C)CC3)cc1F (centres unmarked)", "96%"),
    ("CN1CCc2c(c3cc(Cl)ccc3n2C/C(=C/CCO)c2ccc(F)cc2)C1", "97%"),
    ("C/C(=C/n1c2c(c3cc(Cl)ccc31)CN(C)CC2)c1ccccc1Cl", "101%"),
    ("COc1ccc2c(c1)c1c(n2/C=C(\\C)c2ccncc2)CCN(C)C1", "97%"),
    ("CN1CCc2c(c3cccc(Cl)c3n2CC(C)(O)c2ccncc2)C1 (centres unmarked)", "91%"),
]

Okay, next one:
Return reported inhibition at 1 µM; argument: Cc1ccc2c(c1)c1c(n2CC(O)c2ccncc2)CCN(C)C1 (centres unmarked)
86%

----------
Target: human dopamine D2L receptor (Homo sapiens, UniProt P14416)
Sequence (P14416 whole entry): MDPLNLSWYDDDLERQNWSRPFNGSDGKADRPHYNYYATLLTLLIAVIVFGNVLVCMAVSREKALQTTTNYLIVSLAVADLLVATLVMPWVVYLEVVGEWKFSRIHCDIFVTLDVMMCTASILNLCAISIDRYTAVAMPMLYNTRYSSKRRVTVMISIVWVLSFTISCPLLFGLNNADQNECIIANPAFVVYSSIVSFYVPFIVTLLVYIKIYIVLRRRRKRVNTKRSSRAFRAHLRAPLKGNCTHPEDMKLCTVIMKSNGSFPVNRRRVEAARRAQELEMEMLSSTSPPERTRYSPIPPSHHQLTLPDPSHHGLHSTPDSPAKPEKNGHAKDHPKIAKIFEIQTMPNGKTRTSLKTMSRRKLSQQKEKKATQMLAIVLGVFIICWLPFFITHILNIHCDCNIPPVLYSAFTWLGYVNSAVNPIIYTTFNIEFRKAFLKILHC
Test: Dopamine D2L radioligand binding ([3H]Spiperone)
Details: percent inhibition of specific binding; compound at 1 μM; read-out: Inhibition of ligand binding, Dopamine D2L
Measured inhibition at 1 µM by item
Express the result in % but write the number alone.

# COMPOUND, VALUE_UNIT, inhibition at 1 µM
records = [
    ("C=C(Cn1c2c(c3cc(Cl)ccc31)CN(C)CC2)c1cccnc1", "%", 29),
    ("CN1CCc2c(c3cc(Cl)ccc3n2/C=C(\\c2ccc(F)cc2)C2CC2)C1", "%", 72),
    ("C/C(=C\\n1c2c(c3cccc(F)c31)CN(C)CC2)c1ccncc1", "%", 96),
    ("CN1CCc2c(c3cc(Cl)ccc3n2/C=C(/c2ccc(F)cc2)C2CC2)C1", "%", 96),
    ("C/C(=C\\n1c2c(c3cc(C(F)(F)F)ccc31)CN(C)CC2)c1ccc(F)cc1", "%", 98),
    ("Cc1ccc2c(c1)c1c(n2CC(O)c2cccnc2)CCN(C)C1 (stereo not drawn)", "%", -4),
    ("C/C(=C\\n1c2c(c3cc(Cl)ccc31)CN(C)CC2)c1ccccc1Cl", "%", 81),
    ("Cc1ccc2c(c1)c1c(n2CC(O)(c2ccncc2)C(C)C)CCN(C)C1 (stereo not drawn)", "%", 12),
]

Please examine the following record next.
Reported inhibition at 1 µM for `C/C(=C\n1c2c(c3cc(C(C)(C)C)ccc31)CN(C)CC2)c1ccncc1` : what is it?
63

----------
inhibition at 1 µM values for the compounds below.
Biological target: human recombinant adrenergic α1D receptor (Homo sapiens, UniProt P25100)
Construct: expressed in transfected cells; host or cells: human embryonic kidney (HEK-293) cells
Sequence (P25100 whole entry): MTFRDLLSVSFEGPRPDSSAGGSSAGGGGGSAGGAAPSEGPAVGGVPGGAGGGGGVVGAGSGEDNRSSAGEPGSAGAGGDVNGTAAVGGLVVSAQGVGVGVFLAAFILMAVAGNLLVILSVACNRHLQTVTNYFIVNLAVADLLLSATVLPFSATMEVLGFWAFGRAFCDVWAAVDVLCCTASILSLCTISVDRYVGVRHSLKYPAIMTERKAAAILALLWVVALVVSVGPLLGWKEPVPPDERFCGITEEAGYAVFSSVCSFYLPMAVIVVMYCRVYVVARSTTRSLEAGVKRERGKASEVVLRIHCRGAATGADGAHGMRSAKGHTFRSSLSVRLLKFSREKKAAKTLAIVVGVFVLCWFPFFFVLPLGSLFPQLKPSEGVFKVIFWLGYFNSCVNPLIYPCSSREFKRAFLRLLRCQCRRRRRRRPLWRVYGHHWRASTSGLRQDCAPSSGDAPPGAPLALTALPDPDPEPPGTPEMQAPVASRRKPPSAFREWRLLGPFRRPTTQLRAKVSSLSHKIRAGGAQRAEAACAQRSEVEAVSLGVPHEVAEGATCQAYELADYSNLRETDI
Experiment: Adrenergic α1D radioligand binding ([3H]Prozosin)
Conditions: percent inhibition of specific binding; compound at 1 μM; read-out: Inhibition of ligand binding, Adrenergic α1D
Number only, in %; omit the unit.

// solved cases for inhibition at 1 µM follow
# COMPOUND, READOUT_KIND, EXPERIMENTAL_RESULT
records = [
    ("C/C(=C\\n1c2c(c3cc(Cl)ccc31)CN(C)CC2)c1ccc(Cl)cc1", "inhibition at 1 µM", 87),
    ("Cc1ccc2c(c1)c1c(n2CC(C)(O)c2ccncc2)CCN(C)C1 (stereo not drawn)", "inhibition at 1 µM", 82),
    ("Cc1ccc2c(c1)c1c(n2CC(O)(c2ccccc2)c2ccc(F)cc2)CCN(C)C1 (stereo not drawn)", "inhibition at 1 µM", 42),
    ("CN1CCc2c(c3cc(Cl)ccc3n2CC(C)(O)c2cccnc2)C1 (stereo not drawn)", "inhibition at 1 µM", 87),
    ("Cc1ccc2c(c1)c1c(n2CC(O)c2ccc(C)nc2)CCN(C)C1 (stereo not drawn)", "inhibition at 1 µM", 45),
    ("Cc1ccc(C(O)Cn2c3c(c4cc(C)ccc42)CN(C)CC3)cc1 (racemic)", "inhibition at 1 µM", 87),
]

Report inhibition at 1 µM for CCC(O)(Cn1c2c(c3cc(C)ccc31)CN(C)CC2)c1ccc(F)cc1 (stereo not drawn) please.
75

Given the compound `Cc1ccc2c(c1)c1c(n2/C=C(\CC(=O)O)c2ccc(F)cc2)CCN(C)C1` , what is its reported inhibition at 1 µM?
21

Looking for the measured inhibition at 1 µM of Cc1ccc2c(c1)c1c(n2CC(O)c2cccnc2)CCN(C)C1 (stereo not drawn) , can you help?
15

Record request: inhibition at 1 µM value, item `C/C(=C\n1c2c(c3cc(Cl)ccc31)CN(C)CC2)c1ccncc1`
93
